All values here come from patent US20240182593A1.

- test system: T1, human OX40 protein (Sino Biological, Cat. 10481-H08H) (human, UniProt P43489 29-216)
- T1 construct: Bought recombinant protein; also called CD134; TNFRSF4
- T1 sequence (looked up): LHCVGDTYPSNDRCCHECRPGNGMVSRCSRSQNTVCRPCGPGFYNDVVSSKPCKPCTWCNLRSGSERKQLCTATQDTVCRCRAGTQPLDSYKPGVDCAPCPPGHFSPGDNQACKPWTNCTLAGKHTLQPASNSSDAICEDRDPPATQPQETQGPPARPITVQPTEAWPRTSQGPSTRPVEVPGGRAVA
- measurement description: SPR (BIACORE T200), antibody captured on protein A chip, human OX40 as analyte, 1:1 model
pKd by entry:
In simple prose, pKd is minus the logarithm base ten of a concentration in moles per litre.

Worked examples follow.
binder	measured
O34 (antibody, V domains shown) VH: EVQLLESGGGLVQPGGSLRLSCAASGFTFSDYYMSWVRQAPGKGLEWVSGISSSGGNKYYADSVKGRFTISRDNSKNTLYLQMNSLRAEDTAVYYCARHWKRFDYWGQGTLVTVSS VL: QSVLTQPPSASGTPGQRVTISCTGPSSNIGNNDVSWYQQLPGTAPKLLIYANSNRPSGVSDRFSGSKSGTSASLAISGLRSEDEADYYCGTWDYSLSGYVLGGGTKLTVLG	8.62
O32 (antibody, V domains shown) VH: EVQLLESGGGLVQPGGSLRLSCAASGFTFSSYSMSWVRQAPGKGLEWVSVISSGGGSTYYADSVKGRFTISRDNSKNTLYLQMNSLRAEDTAVYYCARHWRYFDYWGQGTLVTVSS VL: QSVLTQPPSASGTPGQRVTISCSGSSSNIGNNYVSWYQQLPGTAPKLLIYADSKRPSGVPDRFSGSKSGTSASLAISGLRSEDEADYYCGAWDSSLSGYVFGGGTKLTVLG	8.69

Attention now turns to another entry.
Note to self: pKd recorded for O410 (antibody, human IgG1, lambda, V domains shown) VH: EVQLLESGGGLVQPGGSLRLSCAASGFTFSDYYMSWVRQAPGKGLEWVSGIYSDGSRKYYADSVKGRFTISRDNSKNTLYLQMNSLRAEDTAVYYCARHWSRFDYWGQGTLVTVSS VL: QSVLTQPPSASGTPGQRVTISCSGSSSNIGSNYVTWYQQLPRTAPKLLIYYDSNRPSGVPDRFSGSKSGTSASLAISGLRSEDEADYYCGAWDDSLSGYVFGGGTKLTVLG was 8.91
